Tested on: NCI-H661
Test: relative viability (nuclei count vs DMSO), 5 days (fraction); higher = more cells survive
Conditions: first compound 0.1 µM
Consider the cut-off 0.9. If the recorded relative viability is strictly smaller, the label is yes; if not, the label is no.

molecule	group label
CCN(CC)CCCCNc1ncc2cc(-c3cc(OC)cc(OC)c3)c(NC(=O)NC(C)(C)C)nc2n1 + CS(=O)(=O)N1CCN(Cc2cc3nc(-c4cccc5[nH]ncc45)nc(N4CCOCC4)c3s2)CC1 [Pictilisib] (partner 1 µM)	yes

# TODO verify relative viability < 0.9 strictly for this molecule: O=c1cc(N2CCOCC2)oc2c(-c3cccc4c3sc3ccccc34)cccc12 + Nc1nc2[nH]cc(CCc3ccc(C(=O)N[C@@H](CCC(=O)O)C(=O)O)cc3)c2c(=O)[nH]1 [Pemetrexed] (partner 0.2 µM) no

# TODO verify relative viability < 0.9 strictly for this molecule: CCN(CC)CCCCNc1ncc2cc(-c3cc(OC)cc(OC)c3)c(NC(=O)NC(C)(C)C)nc2n1 + O=C(c1cc(Cc2n[nH]c(=O)c3ccccc23)ccc1F)N1CCN(C(=O)C2CC2)CC1 [Olaparib] (partner 8 µM) yes

# TODO verify relative viability < 0.9 strictly for this molecule: CCN(CC)CCCCNc1ncc2cc(-c3cc(OC)cc(OC)c3)c(NC(=O)NC(C)(C)C)nc2n1 + CS(=O)(=O)CCNCc1ccc(-c2ccc3ncnc(Nc4ccc(OCc5cccc(F)c5)c(Cl)c4)c3c2)o1 [Lapatinib] (partner 2 µM) yes

# TODO verify relative viability < 0.9 strictly for this molecule: O=c1cc(N2CCOCC2)oc2c(-c3cccc4c3sc3ccccc34)cccc12 + C[C@@H](Oc1cc(-c2cnn(C3CCNCC3)c2)cnc1N)c1c(Cl)ccc(F)c1Cl [Crizotinib] (partner 1 µM) no

# TODO verify relative viability < 0.9 strictly for this molecule: CCN(CC)CCCCNc1ncc2cc(-c3cc(OC)cc(OC)c3)c(NC(=O)NC(C)(C)C)nc2n1 + Cc1nc(Nc2ncc(C(=O)Nc3c(C)cccc3Cl)s2)cc(N2CCN(CCO)CC2)n1 [Dasatinib] (partner 0.075 µM) no

----------
Test system: COR-L 105
Experiment: relative viability (nuclei count vs DMSO), 5 days (fraction); higher = more cells survive
Conditions: first compound 2.53 µM
assay endpoint: relative viability

molecule	assay endpoint	meas value
COc1nc(C)cnc1NS(=O)(=O)c1cccnc1-c1ccc(-c2nnco2)cc1 [Zibotentan] + CC1(C)CCC(c2ccc(Cl)cc2)=C(CN2CCN(c3ccc(C(=O)NS(=O)(=O)c4ccc(N[C@H](CCN5CCOCC5)CSc5ccccc5)c(S(=O)(=O)C(F)(F)F)c4)cc3)CC2)C1 [Navitoclax] (partner 0.5 µM)	relative viability	0.84

Now let's try a different one.
response.value for O=c1cc(-c2cccc3c2Sc2ccccc2S3)oc(N2CCOCC2)c1 + CCNC(=O)c1noc(-c2cc(C(C)C)c(O)cc2O)c1-c1ccc(CN2CCOCC2)cc1 [Luminespib] (partner 0.01 µM) (field: relative viability) = 0.671

----------
Tested on: NCI-H460
Assay: relative viability (nuclei count vs DMSO), 5 days (fraction); higher = more cells survive
Settings: first compound 0.3162 µM
Reported relative viability by item:
Write no unit; give the number alone.

response.value for CCN(CC)CCCCNc1ncc2cc(-c3cc(OC)cc(OC)c3)c(NC(=O)NC(C)(C)C)nc2n1 + COc1cccc2cc(-c3nc([C@H]4CC[C@H](C(=O)O)CC4)n4ncnc(N)c34)[nH]c12 [OSI-027] (partner 0.5 µM) (field: relative viability) = 0.815
